- method.summary: binders of probe aFSTL3 on microarray, primary screen, stem cell growth factor project, biochemical, small-molecule microarray, fluorescence 635/667 (AID 1064);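 further: measures binding of the biotinylated anti-FSTL3 antibody to printed compounds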
- test.settings: higher = more signal
value.kind: composite z-score

[[record]]
compound = "CC(C)CON=C1[C@H]2CCn3c(=O)n(-c4ccccc4)c(=O)n3[C@H]2[C@H](O)[C@@H]2O[C@H]12"
obs_value = -0.358

[[record]]
compound = "CCOC(=O)C[C@H]1[C@H](OC(=O)c2cc3ccccc3oc2=O)[C@@H](NC(=O)c2ccc3ccccc3n2)c2cc(OCCCO)ccc2N1C(=O)c1ccccc1"
obs_value = -0.189

[[record]]
compound = "COC(=O)CC1OC1[C@H](C)[C@@H](OC)C(C)C (some centres undefined)"
obs_value = -0.243

[[record]]
compound = "O=C1C[C@@H](O)[C@@H](O)[C@@H]2[C@@H]3C(=O)N(c4ccc(F)cc4F)C(=O)[C@@H]3CC[C@@H]12"
obs_value = -0.416

